Target: m2 mAChR-G∀i1∃1(2-GDP complex (Sus scrofa, UniProt P06199))
Sequence (P06199 whole entry): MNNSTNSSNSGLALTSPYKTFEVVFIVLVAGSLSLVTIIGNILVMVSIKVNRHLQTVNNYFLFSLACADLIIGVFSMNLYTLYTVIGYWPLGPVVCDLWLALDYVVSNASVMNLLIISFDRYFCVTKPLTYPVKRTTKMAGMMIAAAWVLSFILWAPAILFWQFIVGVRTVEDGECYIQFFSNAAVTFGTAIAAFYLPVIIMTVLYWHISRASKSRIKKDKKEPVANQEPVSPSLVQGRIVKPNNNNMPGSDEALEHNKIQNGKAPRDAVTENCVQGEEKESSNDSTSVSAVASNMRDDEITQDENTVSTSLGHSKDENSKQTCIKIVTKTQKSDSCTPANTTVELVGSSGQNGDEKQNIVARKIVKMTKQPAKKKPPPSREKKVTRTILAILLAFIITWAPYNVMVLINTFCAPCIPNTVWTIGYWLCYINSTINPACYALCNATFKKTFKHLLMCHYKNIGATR
Sequence (P63096 whole entry partner): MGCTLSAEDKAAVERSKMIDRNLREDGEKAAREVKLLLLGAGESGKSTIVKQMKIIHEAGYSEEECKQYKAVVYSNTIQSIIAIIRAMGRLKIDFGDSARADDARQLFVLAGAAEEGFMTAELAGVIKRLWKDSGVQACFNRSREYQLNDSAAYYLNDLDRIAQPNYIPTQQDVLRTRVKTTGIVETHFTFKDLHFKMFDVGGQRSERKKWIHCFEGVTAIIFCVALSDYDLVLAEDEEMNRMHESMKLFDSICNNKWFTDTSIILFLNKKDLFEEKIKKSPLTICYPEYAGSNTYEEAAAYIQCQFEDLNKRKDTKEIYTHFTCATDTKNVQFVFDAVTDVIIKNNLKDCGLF
Sequence (P62873 whole entry partner): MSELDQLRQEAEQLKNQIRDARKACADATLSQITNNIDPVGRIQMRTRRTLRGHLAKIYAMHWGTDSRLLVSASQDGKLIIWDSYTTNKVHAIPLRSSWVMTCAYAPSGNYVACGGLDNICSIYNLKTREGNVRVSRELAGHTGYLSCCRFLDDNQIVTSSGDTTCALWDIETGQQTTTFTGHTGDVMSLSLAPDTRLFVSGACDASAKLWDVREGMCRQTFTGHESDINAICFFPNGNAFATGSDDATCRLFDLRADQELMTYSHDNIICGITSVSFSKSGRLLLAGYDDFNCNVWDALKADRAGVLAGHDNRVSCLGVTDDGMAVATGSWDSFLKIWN
Sequence (P59768 2-68 partner limits assumed): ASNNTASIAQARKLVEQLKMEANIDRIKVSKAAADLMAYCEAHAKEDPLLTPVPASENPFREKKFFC
Assay: 3H-NMS binding assay by the method of Rinken and Haga
Conditions: m2 mAChR with G protein heterotrimer-GDP as accessory protein
parameter: pKd
Keep it numeric: pKd is minus log10 of the concentration in mol/L.

Would you kindly share the measured pKd for C[N+]1(C)[C@@H]2C[C@@H](OC(=O)[C@H](CO)c3ccccc3)C[C@H]1[C@@H]1O[C@@H]12 [3H-NMS, N-methylscapolamine] ?
6.36
